Numbers sourced from PubChem BioAssay (NCI).

# Tested on: HT29 colon
# measurementDescription: NCI tumour cell line growth inhibition, 48 h
Below, each entry is listed alongside its reported TGI.

| molecule | TGI |
| --- | --- |
| CC(C)COP(=O)(OCC(C)C)C(NS(=O)(=O)c1ccccc1)(C(F)(F)F)C(F)(F)F | 25.4 µM |
| O=[N+]([O-])/C(C(Cl)=C(Cl)Cl)=C(\Nc1cccc2cccnc12)SCc1ccccc1 | 48.5 µM |
| O=P(c1ccccc1)(c1ccccc1)N1O[C@@H](c2ccccc2)C=C[C@H]1c1ccccc1 | 26.5 µM |
| O=c1cc(N=P(c2ccccc2)(c2ccccc2)c2ccccc2)n(-c2ccccc2)c(=O)n1-c1ccccc1 | > 100 µM |
| C/C=C/C=C/c1nc(C#N)c(N)o1 | > 100 µM |
| O=C1C(Cl)=C(Nc2ccccc2)C(=O)c2ccccc21 | 4.72 µM |
| Clc1ccc(-c2nn3c(-c4ccncc4)nnc3s2)cc1 | > 100 µM |
| O=S(=O)(O)c1cc2ccc1/C=C\c1ccc(cc1S(=O)(=O)O)N=Nc1ccc(c(S(=O)(=O)O)c1)/C=C\c1ccc(cc1S(=O)(=O)O)N=N2 | > 100 µM |
| COC1OC(C)C(OCc2ccccc2)C(OS(=O)(=O)c2ccc(C)cc2)C1OS(=O)(=O)c1ccc(C)cc1 (configuration not stated) | > 100 µM |
| OC(CN1CC1)C(O)CN1CC1 (configuration not stated) | > 50 µg/mL |
| CC(CC(=O)Nc1ccc(NC(=O)CC(C)N=NC(N)=S)cc1)N=NC(N)=S (configuration not stated) | > 100 µM |
| CCN(CC)CCNC(=O)c1cn2ncnc(Oc3ccc(NC(=O)Nc4ccc(Cl)c(C(F)(F)F)c4)c(F)c3)c2c1C | 2.45 µM |
